IC50 for assorted compounds
System: HCV cells
Test Details: 3H-thymidine assay
Format: cell-based
Protocol Conditions: read-out: active substance concentration at which 3H-thymidine insertion was 50% inhibited
Property Measured: IC50

* O=c1ccc2cc(O)c(O)cc2o1 [Esculetin, 6,7-hydroxy-1,2-benzopyrone] | > 500 µM
* O=c1ccc2cc(O[C@@H]3O[C@H](CO)[C@@H](O)[C@H](O)[C@H]3O)c(O)cc2o1 | > 500 µM

====

System: CAKI-1 cells
Test Details: 3H-thymidine assay
Format: cell-based
Protocol Conditions: Homo sapiens, CAKI-1; Table 4; *: maximum usable dosage, no 50% inhibition; read-out: active substance concentration at which 3H-thymidine insertion was 50% inhibited
pIC50: −log10 of the molar value.
Property Measured: pIC50

- O=c1ccc2cc(O)c(O)cc2o1 [Esculetin, 6,7-hydroxy-1,2-benzopyrone]: 4.30
- O=c1ccc2ccc(O)cc2o1 [7-OH-1,2-BP, 7-hydroxy-1,2-benzopyrone]: 4.00

====

Test system: A-375 melanoma cells
Test Details: 3H-thymidine assay
Assay type: cell-based
Protocol Conditions: Homo sapiens, A-375, read-out: active substance concentration at which 3H-thymidine insertion was 50% inhibited
Property Measured: IC50

• O=c1ccc2cc(O[C@@H]3O[C@H](CO)[C@@H](O)[C@H](O)[C@H]3O)c(O)cc2o1 = > 500 µM

====

Test system: CAKI-2 cells
Test Details: 3H-thymidine assay
Format: cell-based
Protocol Conditions: Homo sapiens, CAKI-2; Table 4; *: maximum usable dosage, no 50% inhibition; read-out: active substance concentration at which 3H-thymidine insertion was 50% inhibited
pIC50: −log10 of the molar value.
Property Measured: pIC50

• O=c1ccc2cc(O)c(O)cc2o1 [Esculetin, 6,7-hydroxy-1,2-benzopyrone] = 3.30
• O=c1ccc2ccc(O)cc2o1 [7-OH-1,2-BP, 7-hydroxy-1,2-benzopyrone] = 4.12

====

System: CAKI-1 cells
Test Details: 3H-thymidine assay
Format: cell-based
Protocol Conditions: Homo sapiens, CAKI-1, read-out: active substance concentration at which 3H-thymidine insertion was 50% inhibited
pIC50: −log10 of the molar value.
Property Measured: pIC50

• O=c1ccc2cc(O[C@@H]3O[C@H](CO)[C@@H](O)[C@H](O)[C@H]3O)c(O)cc2o1 = 3.43

====

System: Tp 242 MG glioblastoma cells
Test Details: 3H-thymidine assay
Type: cell-based
Protocol Conditions: Homo sapiens, read-out: active substance concentration at which 3H-thymidine insertion was 50% inhibited
Property Measured: IC50 (µM)

* O=c1ccc2cc(O[C@@H]3O[C@H](CO)[C@@H](O)[C@H](O)[C@H]3O)c(O)cc2o1 [Esculin] | 500
